Field: IC50. Provide a value for each of the compounds that follow.
System under test: HsPDF (Homo sapiens)
Construct: A 63 amino acid N-terminally truncated human peptide deformylase (HsPDF); 6His (C); made in house; host or cells: E. coli BL21 (DE3), co-transformed with the GroES/EL chaperone plasmid
Assay notes: HsPDF IC50
Give bare numbers, in µM.

>  <Sample smiles>
COc1ccc(C(=O)c2coc3c2C(=O)C(=O)C(Cl)=C3)cc1

>  <IC50 (µM)>
40

$$$$

Kindly review the next compound as well.
Supply recorded IC50 for O=C1C(=O)c2c(C(=O)c3ccccc3)coc2C(Cl)=C1Cl here.
45

----------
System under test: HsPDF (Homo sapiens)
Construct: A 63 amino acid N-terminally truncated human peptide deformylase (HsPDF); 6His (C); made in house; host or cells: E. coli BL21 (DE3), co-transformed with the GroES/EL chaperone plasmid
Assay notes: FLUO functional assay (fluorescamine, substrate fMAHA)
Type: biochemical
Measurement setup: 0.5 μM HsPDF, upper limit 10 μM compound
Sequence (Q9HBH1 64-243 limits assumed): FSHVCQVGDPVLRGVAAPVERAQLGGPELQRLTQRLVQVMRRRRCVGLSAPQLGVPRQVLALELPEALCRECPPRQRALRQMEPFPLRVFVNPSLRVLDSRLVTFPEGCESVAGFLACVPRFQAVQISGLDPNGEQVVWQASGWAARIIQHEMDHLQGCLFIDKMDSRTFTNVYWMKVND
Value kind: IC50 (µM)
Numbers only, in µM.

Worked set:
>  <Compound>
O=C(O)COc1ccc(C(=O)c2coc3c2C(=O)C(=O)C(Br)=C3Br)cc1 [SKI 417520]

>  <IC50 (µM)>
0.68

$$$$
>  <Compound>
O=C1C(=O)c2c(C(=O)c3ccccc3)coc2C(Br)=C1Br [SKI 417508]

>  <IC50 (µM)>
3.4

$$$$
>  <Compound>
O=C1C(=O)c2c(C(=O)c3ccc(C(=O)O)cc3)coc2C(Br)=C1Br [SKI 417518]

>  <IC50 (µM)>
2.3

$$$$

Please state, for each entry, its recorded IC50.
1. O=C(O)COc1ccc(C(=O)c2coc3c2C(=O)C(=O)C(Cl)=C3Cl)cc1 [SKI 417521]
2. O=C1C(=O)c2c(C(=O)c3ccc(-n4ccnc4)cc3)coc2C(Br)=C1Br [SKI 417499]
3. O=C1C(=O)c2c(C(=O)c3ccc4c(c3)OCCO4)coc2C(Br)=C1Br [SKI 417504]
4. O=C1C(=O)c2c(C(=O)c3ccc(C(=O)O)cc3)coc2C(Cl)=C1Cl [SKI 417519]
5. O=C1C(=O)c2c(C(=O)c3ccsc3)coc2C(Cl)=C1Cl [SKI 417512]

1. 0.62
2. 1.8
3. 2.3
4. 0.69
5. 1.8
